- METHOD NOTES: Selectivity index, ratio of IC50 for human HepG2 cells to MIC for Mycobacterium kansasii 6509/96
- Format: toxicity
- RUN PARAMETERS: read-out: Selectivity Index
ATTRIBUTE MEASURED: selectivity ratio

O=C(N/N=C/c1cc(Cl)ccc1O)c1ccc(C(F)(F)F)cc1; > 1.6

Would you kindly look at the next entry?
Lookup result for O=C(N/N=C/c1ccc(Cl)cc1)c1ccc(C(F)(F)F)cc1 ; measured selectivity ratio: > 6.25

====

Listed here: items and their measured IC50.
- System: MONO-MAC-6
- METHOD NOTES: Cytostatic activity against human MONO-MAC-6 cells incubated overnight followed by compound wash measured after 72 hrs by MTT assay
- Assay type: ADME, cell-based
- RUN PARAMETERS: MONO-MAC-6, 72 h
The figure you give is taken to be in µM; do not add the unit.

O=C(N/N=C/c1ccccc1O)c1ccc(C(F)(F)F)cc1; 1.7

So for O=C(N/N=C/c1cc(Cl)ccc1O)c1ccc(C(F)(F)F)cc1 , the logged IC50 turned out to be 10.3

====

# MIC values compiled below
- System: Staphylococcus aureus
- METHOD NOTES: Antibacterial activity against gram-positive Staphylococcus aureus CCM 4516/08 after 48 hrs by microdilution broth method
- Assay type: functional
- RUN PARAMETERS: CCM 4516/08, 48 h
Note: unit µM is implicit; provide only the numeric part.

Known MIC results, listed for orientation:
O=C(N/N=C/c1cc(Cl)ccc1O)c1ccc(C(F)(F)F)cc1; 1.98
O=C(N/N=C/c1ccc(O)cc1)c1ccc(C(F)(F)F)cc1; 250

Turning now to a further compound:
Looking up O=C(N/N=C/c1ccc(Cl)cc1)c1ccc(C(F)(F)F)cc1 , I see its MIC listed as 62.5

====

- Tested on: Mycobacterium kansasii
- METHOD NOTES: Antimycobacterial activity against Mycobacterium kansasii 6509/80 after 7 days by micromethod
- Format: functional
- RUN PARAMETERS: 6509/80, 168 h
Output met for records whose MIC is lower than 200 µM, not met for records at or above 200 µM.

Worked examples follow.
O=C(NN=C1CCCC1)c1ccc(C(F)(F)F)cc1; not met
O=C(NN=C1CCCCC1)c1ccc(C(F)(F)F)cc1; not met
O=C(N/N=C/c1ccc([N+](=O)[O-])cc1)c1ccc(C(F)(F)F)cc1; met
O=C(N/N=C/c1cc(Cl)ccc1O)c1ccc(C(F)(F)F)cc1; met
O=C(N/N=C/c1ccc(Cl)cc1)c1ccc(C(F)(F)F)cc1; met
O=C(N/N=C/c1cccc(Cl)c1)c1ccc(C(F)(F)F)cc1; met

Attention now turns to another entry.
Data request: Does O=C(N/N=C/c1ccccc1O)c1ccc(C(F)(F)F)cc1 have MIC strictly under 200 µM?
Data returned: not met

====

- Test system: Mycobacterium kansasii
- METHOD NOTES: Antimycobacterial activity against Mycobacterium kansasii 6509/80 after 7 days by micromethod
- Format: functional
- RUN PARAMETERS: 6509/80, 168 h
ATTRIBUTE MEASURED: MIC (µM)
Note: unit µM is implicit; provide only the numeric part.

// below: answered compounds
O=C(N/N=C/c1ccc(O)cc1)c1ccc(C(F)(F)F)cc1; 62.5
O=C(N/N=C/c1cccc(O)c1)c1ccc(C(F)(F)F)cc1; 62.5

// next entry
The reported MIC of the compound CC(C)=NNC(=O)c1ccc(C(F)(F)F)cc1 was 125

====

MIC for assorted compounds
- System: Nakaseomyces glabratus
- METHOD NOTES: Antifungal activity against Candida glabrata 20/I after 24 hrs by microdilution broth method
- Assay type: functional

Record O=C(N/N=C/c1ccc(Cl)cc1)c1ccc(C(F)(F)F)cc1 . Reported MIC: > 125 µM

Reported MIC for OC(Cn1cncn1)(Cn1cncn1)c1ccc(F)cc1F was 31.2 µM

Summary for this compound, O=C(N/N=C/c1ccccc1O)c1ccc(C(F)(F)F)cc1 : MIC is 3.9 µM

The recorded MIC for entry CC(C)=NNC(=O)c1ccc(C(F)(F)F)cc1 equals > 500 µM

====

- METHOD NOTES: Selectivity index, ratio of IC50 for human HepG2 cells to MIC for Mycobacterium kansasii 6509/80
- Format: toxicity
- RUN PARAMETERS: read-out: Selectivity Index
Each entry below lists one item and its recorded selectivity ratio value.

O=C(N/N=C/c1ccc(Cl)cc1)c1ccc(C(F)(F)F)cc1; > 6.25

Shifting focus to the compound that follows.
The reported value for O=C(N/N=C/c1cc(Cl)ccc1O)c1ccc(C(F)(F)F)cc1 in terms of selectivity ratio is > 1.6

====

- System: Candida albicans
- METHOD NOTES: Antifungal activity against Candida albicans ATCC 44859 after 24 to 48 hrs by microdilution broth method
- Format: functional, organism-based
Activity calls are given as the source filed them. The calls are words filed in the database; no cut-off is given here.
ATTRIBUTE MEASURED: Activity

Previously resolved entries follow.
O=C(N/N=C/c1ccc([N+](=O)[O-])cc1)c1ccc(C(F)(F)F)cc1; inactive
O=C(N/N=C/c1cccc(O)c1)c1ccc(C(F)(F)F)cc1; inactive
O=C(N/N=C/c1ccc(Cl)cc1)c1ccc(C(F)(F)F)cc1; inactive
CC(C)=NNC(=O)c1ccc(C(F)(F)F)cc1; inactive

The compound O=C(N/N=C/c1cccc(Cl)c1)c1ccc(C(F)(F)F)cc1 , when measured on Candida albicans, yielded Activity of inactive

Lab entry: Candida albicans assay, compound O=C(N/N=C/c1ccccc1O)c1ccc(C(F)(F)F)cc1 , Activity = inactive

Summary: O=C(N/N=C/c1ccc(O)cc1)c1ccc(C(F)(F)F)cc1 , Candida albicans, Activity = inactive

Item: O=C(N/N=C/c1cc(Cl)ccc1O)c1ccc(C(F)(F)F)cc1 | System: Candida albicans | Activity: inactive

====

- Tested on: Mycobacterium kansasii
- METHOD NOTES: Antimycobacterial activity against Mycobacterium kansasii 6509/96 after 14 days by micromethod
- Format: functional
- RUN PARAMETERS: 6509/96, 336 h
ATTRIBUTE MEASURED: MIC

CC(C)=NNC(=O)c1ccc(C(F)(F)F)cc1; > 125 µM

Next molecule, please.
MIC measured on O=C(N/N=C/c1ccc([N+](=O)[O-])cc1)c1ccc(C(F)(F)F)cc1 = > 250 µM

====

- Test system: Staphylococcus aureus
- METHOD NOTES: Antibacterial activity against gram-positive Staphylococcus aureus CCM 4516/08 after 48 hrs by microdilution broth method
- Type: functional
- RUN PARAMETERS: CCM 4516/08, 48 h
Item-by-item account of MIC

Examples with answers:
NNC(=O)c1ccc(C(F)(F)F)cc1; > 500 µM
O=C(N/N=C/c1ccccc1O)c1ccc(C(F)(F)F)cc1; > 500 µM

Turning to the following compound.
MIC for CC(C)=NNC(=O)c1ccc(C(F)(F)F)cc1 is > 500 µM

====

- Tested on: Mycobacterium kansasii
- METHOD NOTES: Antimycobacterial activity against Mycobacterium kansasii 6509/80 after 7 days by micromethod
- Format: functional
- RUN PARAMETERS: 6509/80, 168 h
Each item that follows carries a reported MIC.

Reference set, count: 2
NNC(=O)c1ccc(C(F)(F)F)cc1; > 250 µM
NNC(=O)c1ccncc1; > 250 µM

// switching to the query compound
Noted for CC12CCC(C/C1=N\NC(=O)c1ccc(C(F)(F)F)cc1)C2(C)C (stereo not drawn) : its MIC reads > 250 µM

====

- System: Nakaseomyces glabratus
- METHOD NOTES: Antifungal activity against Candida glabrata 20/I after 24 hrs by microdilution broth method
- Format: functional
ATTRIBUTE MEASURED: MIC

Worked cases, answers included:
NNC(=O)c1ccc(C(F)(F)F)cc1; > 500 µM
O=C(N/N=C/c1ccc(O)cc1)c1ccc(C(F)(F)F)cc1; > 125 µM

Turning now to a further compound:
Entry O=C(N/N=C/c1cc(Cl)ccc1O)c1ccc(C(F)(F)F)cc1 — recorded MIC = ≤ 0.49 µM

====

MIC by entry:
- System: Mycobacterium kansasii
- METHOD NOTES: Antimycobacterial activity against Mycobacterium kansasii 6509/96 after 14 days by micromethod
- Format: functional
- RUN PARAMETERS: 6509/96, 336 h

Below: 2 molecules and their reported MIC.
CC12CCC(C/C1=N\NC(=O)c1ccc(C(F)(F)F)cc1)C2(C)C (stereo not drawn); > 250 µM
O=C(N/N=C/c1cccc(Cl)c1)c1ccc(C(F)(F)F)cc1; > 125 µM

Note: attention shifts to another entry.
# MIC measured on Mycobacterium kansasii for item NNC(=O)c1ccc(C(F)(F)F)cc1 = > 250 µM
